This section presents compounds with their documented IC50 values.
Test system: Hepatitis C virus
Assay: Antiviral activity against HCV infected in human Huh7 cells assessed as inhibition of viral replication after 48 hrs by NS5A staining
Conditions: Huh-7, 48 h
Your answer should be a plain number; it is taken to be in µg/mL.

Use these answered entries as a reference point.
{"compound": "COC(=O)C1=CO[C@@H](O[C@@H]2O[C@H](CO)[C@@H](O)[C@H](O)[C@H]2O)[C@H]2[C@@H]1[C@H](O)C[C@]2(C)O [SHANZHISIDE METHYL ESTER]", "recorded-value": 18}
{"compound": "COC(=O)C1=CO[C@@H](O)[C@@H]2C(CO)=CC[C@H]12", "recorded-value": 20}

Let us examine a further case.
Record `COC(=O)C1=CO[C@@H](O[C@@H]2O[C@H](CO)[C@@H](O)[C@H](O)[C@H]2O)[C@@H]2[C@@H](C)[C@@H](O)C[C@H]12` , field IC50: 16

* * *

Molecular target: CD81 antigen (Homo sapiens) (UniProt P60033)
Sequence (P60033 whole entry): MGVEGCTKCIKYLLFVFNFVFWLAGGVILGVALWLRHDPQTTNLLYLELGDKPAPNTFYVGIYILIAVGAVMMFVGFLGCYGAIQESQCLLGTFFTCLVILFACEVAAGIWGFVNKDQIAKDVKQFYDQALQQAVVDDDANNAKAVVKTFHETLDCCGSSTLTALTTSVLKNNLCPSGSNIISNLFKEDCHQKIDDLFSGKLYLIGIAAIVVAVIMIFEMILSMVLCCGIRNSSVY
Assay: Inhibition of human recombinant GST-tagged CD81 protein assessed as HCV E1E2 binding after 1 hr by Western blot analysis
Active and inactive are the calls of the source. The rule behind the calls is not given here.

{"compound": "COC(=O)C1=CO[C@@H](O[C@@H]2O[C@H](CO)[C@@H](O)[C@H](O)[C@H]2O)[C@H]2[C@@H]1[C@H](O)C[C@]2(C)O [SHANZHISIDE METHYL ESTER]", "Activity": "inactive"}
{"compound": "C[C@@H]1[C@H]2[C@H](O[C@@H]3O[C@H](CO)[C@@H](O)[C@H](O)[C@H]3O)OC=C(C(=O)O)[C@H]2C[C@@H]1O", "Activity": "inactive"}
{"compound": "COC(=O)C1=CO[C@@H](O[C@@H]2O[C@H](CO)[C@@H](O)[C@H](O)[C@H]2O)[C@@H]2[C@@H](C)[C@@H](O)C[C@H]12", "Activity": "inactive"}

* * *

System: Hepatitis C virus
Test: Antiviral activity against HCV expressing E1E2 glycoprotein with Vpr-deficient HIV vector assessed as inhibition of pseudoparticle entry in human Huh7 cells preincubated for 20 mins measured after 72 hrs by luciferase reporter gene assay
Format: functional, organism-based, Hepacivirus hominis
Details: Huh-7
attribute-measured: IC50 (nM)
Your answer should be a plain number; it is taken to be in nM.

Record COC(=O)C1=COC(O)[C@H]2[C@@H]1[C@H](O)[C@H](O)C2(C)O (mixture of isomers) , field IC50: 2310

* * *

System: Hepatitis C virus
Test: Antiviral activity against HCV expressing E1E2 glycoprotein with Vpr-deficient HIV vector assessed as inhibition of viral entry in human Huh7 cells at 20 ug/ml after 72 hrs by luciferase reporter gene assay
Format: functional, Hepacivirus hominis
Details: Huh-7, 72 h
attribute-measured: inhibition at 20 µg/mL (%)
Your answer should be a plain number; it is taken to be in %.

Use these answered entries as a reference point.
{"molecule": "COC(=O)C1=CO[C@@H](O[C@@H]2O[C@H](CO)[C@@H](O)[C@H](O)[C@H]2O)[C@@H]2C(CO)=CC[C@H]12 [GENIPOSIDE]", "endpoint-unit": "%", "inhibition at 20 µg/mL": 1.1}
{"molecule": "C[C@]1(OC(=O)/C=C/c2ccccc2)C[C@@H](O)[C@]2(O)C=CO[C@@H](O[C@@H]3O[C@H](CO)[C@@H](O)[C@H](O)[C@H]3O)[C@@H]21 [HARPAGOSIDE]", "endpoint-unit": "%", "inhibition at 20 µg/mL": 2.1}
{"molecule": "COC(=O)C1=CO[C@@H](O[C@@H]2O[C@H](CO)[C@@H](O)[C@H](O)[C@H]2O)[C@H]2[C@@H]1[C@H](O)C[C@]2(C)O [SHANZHISIDE METHYL ESTER]", "endpoint-unit": "%", "inhibition at 20 µg/mL": -13.1}

Let us examine a further case.
Record `COC(=O)C1=CO[C@@H](O)[C@@H]2C(CO)=CC[C@H]12` , field inhibition at 20 µg/mL: 73.2

The origin of these recorded values is ChEMBL document CHEMBL1153732.
